system.name: recombinant human integrin αvβ6 (Homo sapiens (Human), UniProt P06756+P18564)
Sequence (P06756 31-992): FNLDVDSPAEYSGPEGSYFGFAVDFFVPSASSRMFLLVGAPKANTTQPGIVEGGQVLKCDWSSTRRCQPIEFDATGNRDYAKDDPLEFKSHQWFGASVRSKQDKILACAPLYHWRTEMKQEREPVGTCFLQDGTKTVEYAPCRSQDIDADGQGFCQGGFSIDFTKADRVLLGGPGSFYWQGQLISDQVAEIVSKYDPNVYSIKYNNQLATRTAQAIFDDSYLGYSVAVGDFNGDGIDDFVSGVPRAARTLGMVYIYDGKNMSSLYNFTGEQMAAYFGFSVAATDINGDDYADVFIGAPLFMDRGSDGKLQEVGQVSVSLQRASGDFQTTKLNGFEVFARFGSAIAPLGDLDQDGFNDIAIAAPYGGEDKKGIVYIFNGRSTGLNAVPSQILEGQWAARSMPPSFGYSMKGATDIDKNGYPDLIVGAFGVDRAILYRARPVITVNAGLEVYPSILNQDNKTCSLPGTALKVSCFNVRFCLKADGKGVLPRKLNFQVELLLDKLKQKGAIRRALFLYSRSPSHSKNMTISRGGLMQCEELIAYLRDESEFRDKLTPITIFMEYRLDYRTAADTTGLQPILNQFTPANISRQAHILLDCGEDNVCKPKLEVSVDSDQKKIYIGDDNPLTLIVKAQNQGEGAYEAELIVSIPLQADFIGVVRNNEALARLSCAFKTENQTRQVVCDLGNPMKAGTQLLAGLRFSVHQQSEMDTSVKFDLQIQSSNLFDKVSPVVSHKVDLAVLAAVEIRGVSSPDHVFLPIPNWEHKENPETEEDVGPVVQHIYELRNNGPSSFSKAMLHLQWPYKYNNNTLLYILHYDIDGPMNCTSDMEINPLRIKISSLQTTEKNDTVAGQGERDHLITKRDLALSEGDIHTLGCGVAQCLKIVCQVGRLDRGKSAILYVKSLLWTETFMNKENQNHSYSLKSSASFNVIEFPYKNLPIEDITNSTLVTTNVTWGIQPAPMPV
Sequence (P18564 22-707): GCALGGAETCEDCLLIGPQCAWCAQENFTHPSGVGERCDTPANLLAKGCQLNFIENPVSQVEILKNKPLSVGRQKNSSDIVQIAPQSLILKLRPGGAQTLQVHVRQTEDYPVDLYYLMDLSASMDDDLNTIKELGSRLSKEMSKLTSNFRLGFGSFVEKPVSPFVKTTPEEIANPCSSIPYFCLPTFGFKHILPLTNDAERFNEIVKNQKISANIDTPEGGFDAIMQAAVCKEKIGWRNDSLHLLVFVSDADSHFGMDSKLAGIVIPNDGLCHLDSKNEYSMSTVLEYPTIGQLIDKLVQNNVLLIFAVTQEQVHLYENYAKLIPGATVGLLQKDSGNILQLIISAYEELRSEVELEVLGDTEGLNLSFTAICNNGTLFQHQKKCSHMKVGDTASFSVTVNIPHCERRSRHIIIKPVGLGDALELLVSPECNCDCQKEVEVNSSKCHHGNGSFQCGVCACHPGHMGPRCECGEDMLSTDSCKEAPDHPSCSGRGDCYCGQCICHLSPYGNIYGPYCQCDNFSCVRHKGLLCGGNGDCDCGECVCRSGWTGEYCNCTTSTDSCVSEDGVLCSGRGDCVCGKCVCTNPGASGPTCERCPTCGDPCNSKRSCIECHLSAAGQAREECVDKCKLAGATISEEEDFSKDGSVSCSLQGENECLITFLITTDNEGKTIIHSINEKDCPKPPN
test.summary: Solid phase integrin αvβ6 binding assay
conditions: plate-coated integrin; recombinant TGFβ1 LAP 0.67 ug/ml as ligand; 2 hours at 25° C.; read-out: αvβ6 Inhibition IC50 (nM) - range
parameter: IC50

compound="O=C(O)[C@H](CCN1CC[C@@H](CCc2ccc3c(n2)NCCC3)C1)NC(=O)[C@@H]1CCCCN1C(=O)C1CCC1 [Compound 74]" parameter=IC50 test_value="< 50 nM"
compound="O=C(N[C@@H](CCN1CC[C@@H](CCc2ccc3c(n2)NCCC3)C1)C(=O)O)c1ccncn1 [Compound 70]" parameter=IC50 test_value="< 50 nM"
compound="CC(C)(C)c1cccc(C(=O)N[C@@H](CCN2CC[C@@H](CCc3ccc4c(n3)NCCC4)C2)C(=O)O)c1 [Compound 68]" parameter=IC50 test_value="< 50 nM"
compound="O=C(O)[C@H](CCN1CC[C@@H](OCCc2ccc3c(n2)NCCC3)C1)NC(=O)[C@@H]1CCCN1c1ccccc1 [Compound 133]" parameter=IC50 test_value="250 to 1000 nM"
compound="O=C(O)[C@H](CCN1CC[C@@H](CCc2ccc3c(n2)NCCC3)C1)NC(=O)[C@@H]1CCCN1Cc1ccccc1 [Compound 36]" parameter=IC50 test_value="< 50 nM"
compound="CC(C)n1cc2c(C(=O)N[C@@H](CCN3CC[C@@H](CCc4ccc5c(n4)NCCC5)C3)C(=O)O)cccc2n1 [Compound 71]" parameter=IC50 test_value="< 50 nM"
compound="O=C(N[C@@H](CCN1CC[C@@H](OCCc2ccc3c(n2)NCCC3)C1)C(=O)O)[C@H]1CCN(c2ccccn2)C1 [Compound 126]" parameter=IC50 test_value="> 1000 nM"
compound="Cc1cc(C)n(-c2cccc(C(=O)NC(CCN3CC[C@@H](CCc4ccc5c(n4)NCCC5)C3)C(=O)O)c2)n1 (stereo partly shown) [13a and 13c]" parameter=IC50 test_value="< 50 nM"
compound="Cn1cc(-c2cccc(C(=O)N[C@H](CCN3CC[C@@H](CCc4ccc5c(n4)NCCC5)C3)C(=O)O)c2)cn1 [Compound 87]" parameter=IC50 test_value="< 50 nM"
compound="O=C(N[C@@H](CCN1CC(CCc2ccc3c(n2)NCCC3)CC(F)(F)C1)C(=O)O)c1ccccc1 (stereo partly shown) [Compound 41]" parameter=IC50 test_value="50 to 250 nM"
compound="Cc1cc(C)n(-c2cccc(C(=O)N[C@@H](CCN3CCC(CCc4ccc5c(n4)NCCC5)CC3)C(=O)O)c2)n1 [Compound 12a]" parameter=IC50 test_value="> 1000 nM"
compound="O=C(N[C@@H](CCN1CC[C@@H](OCCc2ccc3c(n2)NCCC3)C1)C(=O)O)c1c(Cl)cccc1Cl [Compound 114]" parameter=IC50 test_value="250 to 1000 nM"
compound="N#Cc1cccc(C(=O)N[C@@H](CCN2CC[C@@H](CCc3ccc4c(n3)NCCC4)C2)C(=O)O)c1 [Compound 48]" parameter=IC50 test_value="< 50 nM"
compound="O=C(O)[C@H](CCN1CC[C@@H](CCc2ccc3c(n2)NCCC3)C1)NC(=O)[C@@H]1CCCN1Cc1ncccn1 [Compound 90]" parameter=IC50 test_value="< 50 nM"
compound="O=C(Cc1ccccc1Cl)N[C@@H](CCN1CC[C@@H](CCc2ccc3c(n2)NCCC3)C1)C(=O)O [Compound 75]" parameter=IC50 test_value="< 50 nM"
compound="O=C(O)[C@H](CCN1CC[C@@H](CCc2ccc3c(n2)NCCC3)C1)NC(=O)[C@@H]1CCCN1CC1CC1 [Compound 91]" parameter=IC50 test_value="50 to 250 nM"
compound="CC(C)n1ncc2c(C(=O)N[C@@H](CCN3CC[C@@H](CCc4ccc5c(n4)NCCC5)C3)C(=O)O)cccc21 [Compound 60]" parameter=IC50 test_value="< 50 nM"
compound="O=C(O)[C@H](CCN1CC[C@@H](CCc2ccc3c(n2)NCCC3)C1)NC(=O)[C@@H]1COCCN1Cc1ccccc1 [Compound 89]" parameter=IC50 test_value="< 50 nM"
compound="O=C(N[C@@H](CCN1CC[C@@H](CCc2ccc3c(n2)NCCC3)C1)C(=O)O)c1ccc2c(cnn2C(F)F)c1 [Compound 30a]" parameter=IC50 test_value="< 50 nM"
compound="O=C(NC(CCN1CC[C@@H](CCc2ccc3c(n2)NCCC3)C1)C(=O)O)c1ccc2ocnc2c1 (stereo partly shown) [31a and 31c]" parameter=IC50 test_value="< 50 nM"
compound="Cc1cc(C)n(-c2cccc(C(=O)N[C@H](CCN3CC[C@@H](CCc4ccc5c(n4)NCCC5)C3)C(=O)O)c2)n1 [Compound 13c]" parameter=IC50 test_value="< 50 nM"
compound="O=C(N[C@@H](CCN1CCC[C@@](F)(CCc2ccc3c(n2)NCCC3)C1)C(=O)O)c1cccc(N2CCOCC2)c1 [Compound 96]" parameter=IC50 test_value="50 to 250 nM"
compound="CC(C)(Cc1ccccc1)C(=O)N[C@@H](CCN1CC(CCc2ccc3c(n2)NCCC3)C1)C(=O)O [Compound 137]" parameter=IC50 test_value="> 1000 nM"
compound="O=C(N[C@@H](CCN1CC[C@@H](CCc2ccc3c(n2)NCCC3)C1)C(=O)O)c1ccccc1C(F)(F)F [Compound 8a]" parameter=IC50 test_value="< 50 nM"
compound="CC(=O)N1CCN(CC[C@H](NC(=O)c2ccccc2)C(=O)O)C[C@@H]1CCc1ccc2c(n1)NCCC2 [Compound 116]" parameter=IC50 test_value="> 1000 nM"
compound="O=C(N[C@@H](CCN1CC[C@@H](CCc2ccc3c(n2)NCCC3)C1)C(=O)O)c1cccc(-c2cscn2)c1 [Compound 65]" parameter=IC50 test_value="50 to 250 nM"
compound="O=C(O)[C@H](CCN1CC[C@@H](CCc2ccc3c(n2)NCCC3)C1)NC(=O)[C@@H]1CCN1Cc1ccccc1 [Compound 81]" parameter=IC50 test_value="50 to 250 nM"
compound="O=C(N[C@@H](CCN1CC[C@@H](CCc2ccc3c(n2)NCCC3)C1)C(=O)O)C1CCOCC1 [Compound 38]" parameter=IC50 test_value="< 50 nM"

Data provenance is patent US10696672B2.
